Data origin, for the record: PubChem BioAssay

Can you tell me composite z-score for the items I'm about to list?
experiment: small-molecule microarray binders of probe aShh, primary screen, biochemical, biotinylated probe, 635/667 nm fluorescence (AID 1114); settings: higher = more signal;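 further: probe is biotin-labelled aShh protein from a stem cell growth factor screen; measures binding of labelled protein to compounds printed on the slide; score merges feature fluorescence at 667 nm with signal-to-noise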

Query block: Given the entry COC(=O)C1(Cc2ccccc2)C=C2C(=C(c3ccccc3)C(=O)C2C)CN1 (centres undefined) , report its measured composite z-score.
Result block: 2.71

Query block: If you can, please state the reported composite z-score value of COCCOC(=O)N1C(=O)[C@@]2(c3ccccc31)[C@H](c1ccc(OCCO)cc1)N1[C@H](c3ccccc3)[C@H](c3ccccc3)OC(=O)[C@H]1[C@@H]2C(=O)Nc1nc2ccccc2s1 .
Result block: -0.0769

Query block: Please look up its composite z-score: COC(=O)[C@@]1(Cc2ccc(F)cc2)[C@H]2c3cc(C(=O)N4CCCC4)n(CCF)c3C[C@H]2CN1C(=O)c1ccccc1
Result block: 1.79

Query block: # query: composite z-score of entry COCCOC(=O)N1C(=O)[C@@]2(c3cc(C#CC4(O)CCCCCC4)ccc31)[C@H](C(=O)N1CCCCCCC1)[C@H]1C(=O)O[C@H](c3ccccc3)[C@H](c3ccccc3)N1[C@@H]2c1ccc(OCCO)cc1
Result block: 2.59

* * *

molecular target: Fibroblast growth factor 10 (Homo sapiens) (UniProt O15520); assay: FGF10 binders on small-molecule microarrays, primary screen, biochemical, small-molecule microarray, 635 nm fluorescence (AID 1102); conditions: FGF10 binding, fluorescence 635 nm, higher = more signal
Sequence (O15520 whole entry, looked up): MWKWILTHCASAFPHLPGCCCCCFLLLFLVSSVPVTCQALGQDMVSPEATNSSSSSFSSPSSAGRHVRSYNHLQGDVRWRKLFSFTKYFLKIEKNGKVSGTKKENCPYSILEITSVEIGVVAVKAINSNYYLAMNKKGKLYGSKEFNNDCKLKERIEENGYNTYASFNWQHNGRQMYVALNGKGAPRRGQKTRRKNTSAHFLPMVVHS
For each of the compounds below, state its composite z-score.
Lab note: jot the number down without any unit.

Query block: # composite z-score lookup, item CN(C)CCCNC(=O)[C@@]1(C)c2ccccc2C(=O)N(Cc2cc(C(F)(F)F)cc(C(F)(F)F)c2)[C@H]1c1ccc(CO)cc1
Result block: -0.753

Query block: What value of composite z-score has been reported for the following compound? C=C[C@H](COC(C)=O)NS(=O)(=O)c1ccc(Br)cc1
Result block: -0.28

Query block: Request the reported composite z-score associated with C=C(COC)/C(=C/C[C@@H](OC(=O)c1ccncc1)c1ccc(CO)o1)c1cnc2ccccc2c1
Result block: 1.59

Query block: Sample [N-]=[N+]=Nc1ccccc1[C@H]1OC(c2ccc(OCCCO)cc2)=N[C@@]1(CCS(=O)(=O)c1ccccc1)C(=O)N1CCCCC1 — what was its composite z-score?
Result block: 0.354

Query block: Quick check: composite z-score of COC(=O)[C@@]1(Cc2ccccc2)[C@H]2c3cc(C(=O)N4CCCC4)n(Cc4ccsc4Br)c3C[C@H]2CN1C(=O)c1ccccc1 ?
Result block: 0.832

Query block: Need composite z-score, item COc1ccc(NC(=O)O[C@H]2[C@H](OC(=O)Nc3ccc4c(c3)OCO4)[C@@H](OC(=O)Nc3ccc4c(c3)OCO4)[C@@H](OC)O[C@@H]2CO)cc1
Result block: 1.11

Query block: What value of composite z-score has been recorded for this entry: CC1CC/C=C\[C@H]2OC34C=CCN(CCN5CCOCC5)C(=O)[C@H]3N(CCO)C(=O)[C@@H]4C2C(=O)O1 (some centres not stated)
Result block: -0.992

* * *

Exercise: for every item that follows, state its recorded composite z-score.
molecular target: Follistatin-related protein 3 (Homo sapiens) (UniProt O95633); assay: FSTL3 binders on small-molecule microarrays, primary screen, biochemical, small-molecule microarray, 635 nm fluorescence (AID 1105); conditions: FSTL3 binding, higher = more signal;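 further: score merges emission near 667 nm and signal to noise per printed spot across three slides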
Sequence (O95633 whole entry, looked up): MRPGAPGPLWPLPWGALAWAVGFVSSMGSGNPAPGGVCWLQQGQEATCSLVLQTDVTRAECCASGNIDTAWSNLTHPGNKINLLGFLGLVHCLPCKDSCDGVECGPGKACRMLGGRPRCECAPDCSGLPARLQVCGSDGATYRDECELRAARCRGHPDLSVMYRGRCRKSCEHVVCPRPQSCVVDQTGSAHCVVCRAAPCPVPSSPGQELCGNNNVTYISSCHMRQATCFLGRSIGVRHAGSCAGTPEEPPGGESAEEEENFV
Lab note: jot the number down without any unit.

Query block: Any idea what its composite z-score is? The molecule is C=CCN1C(=O)[C@@]2(CCC(=O)OC(C)(C)C)N=C(c3ccc(OCCCO)cc3)O[C@H]2c2ccccc21
Result block: 0.792

Query block: # query: composite z-score of entry C=C(C(=O)CC[C@H](OC(C)=O)c1cccc(OCCO)c1)C(C)C
Result block: -0.835

Query block: # get_value(readout='composite z-score', item= C=CCOC(=O)[C@@H]1[C@H]2C(=O)O[C@H](c3ccccc3)[C@H](c3ccccc3)N2[C@H](c2ccc(OCCOC(=O)[C@H]3C[C@H]4C(=O)N[C@@H](CC(C)C)C(=O)N4[C@H]3c3ccc(O)cc3)cc2)[C@@]12C(=O)Nc1ccc(I)cc12 )
Result block: 1.51

Query block: Bench note: what composite z-score did CC1CC/C=C\[C@H]2OC34C=CCN(CCN5CCOCC5)C(=O)[C@H]3N(CCO)C(=O)[C@@H]4C2C(=O)O1 (some centres undefined) show?
Result block: -0.781

Query block: Can you share its composite z-score? I mean this molecule: CCCCN1CC=CC23O[C@@H]4C=CCOC(=O)[C@@H]4[C@H]2C(=O)N(CCCO)[C@@H]3C1=O (some centres undefined)
Result block: -1.18

Query block: Which composite z-score value belongs to COCCOC(=O)N1C(=O)[C@@]2(c3cc(C#CC4=CCCCC4)ccc31)[C@H](c1ccccc1OCCO)N1[C@H](c3ccccc3)[C@H](c3ccccc3)OC(=O)[C@H]1[C@@H]2C(=O)N1CCc2cc(OC)c(OC)cc2C1 ?
Result block: 1.4

Query block: What value of composite z-score has been recorded for this entry: COC(=O)[C@@]1(Cc2ccccc2)[C@H]2c3cc(C(=O)N4CCCC4)n(Cc4cc(F)cc5c4OCOC5)c3C[C@H]2CN1C(=O)c1ccccc1
Result block: 0.286

Query block: Returns the measured composite z-score for the input molecule. Input: CC(C)CNC(=O)[C@@]1(c2ccc([N+](=O)[O-])cc2)CC(=O)N(C2CCCCC2)[C@@H]1c1ccc(CO)cc1I
Result block: -0.16

Query block: # get_value(readout='composite z-score', item= COC(=O)[C@@]1(Cc2ccc(OC)cc2)[C@H]2c3cc(C(=O)N4CCCC4)n(CCc4cc5ccccc5[nH]4)c3C[C@H]2CN1C(=O)c1ccccc1 )
Result block: 1.2

Query block: Returns the measured composite z-score for the input molecule. Input: COc1cc(OC)c(C(O)C2C=CC3C(=O)N(c4ccccc4)C(=O)C3N2Nc2ccc(C#N)cc2)cc1Br (centres undefined)
Result block: 0.95

Query block: Look up composite z-score for this molecule: O=C1NCC(=O)N2[C@@H]1C[C@@H](C(=O)O)[C@H]2c1ccc(O)cc1
Result block: 1.37

Query block: Returns the measured composite z-score for the input molecule. Input: C=CC1c2cc(O)c(OC)cc2CCN1Cc1sc2ccccc2c1Cl (centres undefined)
Result block: 0.847

Query block: Given the entry CC(CO)N1C(=O)[C@@H]2C3C(=O)OCCC/C=C\[C@H]3OC23C=CCN(Cn2nnc4ccccc42)C(=O)[C@@H]13 (some centres undefined) , report its measured composite z-score.
Result block: -0.474

Query block: Can you share its composite z-score? I mean this molecule: CN(C)CCCNC(=O)[C@@]1(C)c2ccccc2C(=O)N(Cc2cc(C(F)(F)F)cc(C(F)(F)F)c2)[C@H]1c1ccc(CO)cc1
Result block: -1.14
